target: prestin (SLC26A5) (Mus musculus, UniProt Q99NH7)
Construct: endogenous prestin in isolated C57BL/6 mouse outer hair cells
Sequence (Q99NH7 1-744): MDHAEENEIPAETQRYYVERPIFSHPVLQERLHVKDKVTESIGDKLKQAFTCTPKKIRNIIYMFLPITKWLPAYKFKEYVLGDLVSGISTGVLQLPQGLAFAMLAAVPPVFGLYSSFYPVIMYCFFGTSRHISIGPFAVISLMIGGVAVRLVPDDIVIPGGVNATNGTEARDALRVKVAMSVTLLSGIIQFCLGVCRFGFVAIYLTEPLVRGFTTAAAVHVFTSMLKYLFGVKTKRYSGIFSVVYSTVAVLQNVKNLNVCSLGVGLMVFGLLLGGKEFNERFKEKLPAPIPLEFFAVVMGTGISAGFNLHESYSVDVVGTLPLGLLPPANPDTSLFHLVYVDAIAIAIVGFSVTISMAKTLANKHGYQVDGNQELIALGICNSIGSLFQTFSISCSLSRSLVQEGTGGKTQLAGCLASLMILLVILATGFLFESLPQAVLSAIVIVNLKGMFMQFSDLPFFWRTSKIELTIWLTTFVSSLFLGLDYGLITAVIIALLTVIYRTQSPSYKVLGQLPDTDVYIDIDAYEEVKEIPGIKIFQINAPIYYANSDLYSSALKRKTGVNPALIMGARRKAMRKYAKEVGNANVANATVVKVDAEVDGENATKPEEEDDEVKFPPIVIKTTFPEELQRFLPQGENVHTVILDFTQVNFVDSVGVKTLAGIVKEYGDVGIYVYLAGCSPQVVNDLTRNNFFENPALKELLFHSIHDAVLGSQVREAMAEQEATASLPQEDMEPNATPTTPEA
assay-overview: whole-cell patch clamp of outer hair cells, non-linear capacitance / charge transfer (Qmax) at […] intracellular chloride
readout-kind: pIC50
Answers are plain numbers, as −log10 of the molar value.

Recorded pIC50 (molecule O=C(O)c1cc(-c2ccc(F)cc2F)ccc1O ): 4.01
